System: 276233-004-R-J1-PDC KRAS spheroids with HUVEC/MSC, viability
Test: Anticancer human tumor 276233-004-R-J1-PDC patient-derived colon adenocarcinoma cell line growth inhibition [KRAS2]
Conditions: second compound 1 µM; first compound 1 µM; stronger effect = lower value
# viability, T/C listing for each entry below

Worked examples follow.
CC(C)NCC(C(=O)N1CCN(c2ncnc3c2C(C)CC3O)CC1)c1ccc(Cl)cc1 (stereo not drawn) + C=CC(=O)N1CCN(c2nc(OCC3CCCN3C)nc3c2CCN(c2cccc4cccc(C)c24)C3)CC1CC#N | 61.9%
CCNC(=O)CC1N=C(c2ccc(Cl)cc2)c2cc(OC)ccc2-n2c(C)nnc21 (stereo not drawn) + CC1OCC2(CCN(c3cnc(Sc4ccnc(N)c4Cl)c(N)n3)CC2)C1N | 52.5%

Asked: Retrieve viability, T/C measured for CC1COCCN1c1cc(-c2ccnn2C)c2ccnc(-c3ccn[nH]3)c2n1 (stereo not drawn) + COc1cc2nc(C)nc(NC(C)c3cc(N)cc(C(F)(F)F)c3)c2cc1OC1CCOC1 and print it.
Given back: 53.6%

----------
Test system: 276233-004-R-J1-PDC KRAS spheroids with HUVEC/MSC, viability
Assay: Anticancer human tumor 276233-004-R-J1-PDC cell line growth inhibition [KRAS2];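 further: cells exposed to agents for seven days before viability read; 100% = DMSO vehicle control wells and lower values mean fewer viable cells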
Settings: second compound 0.316 µM; first compound 0.316 µM; stronger effect = lower value
Observable: viability, T/C (%)
Entry rule: numbers only, all in %.

CCNC(=O)CC1N=C(c2ccc(Cl)cc2)c2cc(OC)ccc2-n2c(C)nnc21 (stereo not given) + C=CC(=O)N1CCN(c2nc(=O)n(-c3c(C)ccnc3C(C)C)c3nc(-c4c(O)cccc4F)c(F)cc23)C(C)C1 | 72
CCN1CCN(Cc2ccc(Nc3ncc(F)c(-c4cc(F)c5nc(C)n(C(C)C)c5c4)n3)nc2)CC1 + CNCc1ccccc1-c1csc(C(C)Nc2nc(C)nc3cc(OC)c(OC)cc23)c1 | 104
CC1(C)CCC(CN2CCN(c3ccc(C(=O)NS(=O)(=O)c4ccc(NCC5CCOCC5)c([N+](=O)[O-])c4)c(Oc4cnc5[nH]ccc5c4)c3)CC2)=C(c2ccc(Cl)cc2)C1 + COc1cc2nc(C)nc(NC(C)c3cc(N)cc(C(F)(F)F)c3)c2cc1OC1CCOC1 | 95.9
CCN1CCN(Cc2ccc(Nc3ncc(F)c(-c4cc(F)c5nc(C)n(C(C)C)c5c4)n3)nc2)CC1 + COc1cc2nc(C)nc(NC(C)c3cc(N)cc(C(F)(F)F)c3)c2cc1OC1CCOC1 | 98.8
CCNC(=O)CC1N=C(c2ccc(Cl)cc2)c2cc(OC)ccc2-n2c(C)nnc21 (stereo not given) + CNCc1ccccc1-c1csc(C(C)Nc2nc(C)nc3cc(OC)c(OC)cc23)c1 | 85.5
COC(=O)c1ccc2c(C(=Nc3ccc(N(C)C(=O)CN4CCN(C)CC4)cc3)c3ccccc3)c(O)[nH]c2c1 + COc1cc2nc(C)nc(NC(C)c3cc(N)cc(C(F)(F)F)c3)c2cc1OC1CCOC1 | 74.2
CC(C)NCC(C(=O)N1CCN(c2ncnc3c2C(C)CC3O)CC1)c1ccc(Cl)cc1 (stereo not given) + CNCc1ccccc1-c1csc(C(C)Nc2nc(C)nc3cc(OC)c(OC)cc23)c1 | 76.4
CC(=O)OC12COC1CC(O)C1(C)C(=O)C(O)C3=C(C)C(OC(=O)C(O)C(NC(=O)OC(C)(C)C)c4ccccc4)CC(O)(C(OC(=O)c4ccccc4)C21)C3(C)C (stereo not given) + C=CC(=O)N1CCN(c2nc(OCC3CCCN3C)nc3c2CCN(c2cccc4cccc(C)c24)C3)CC1CC#N | 72.2

Asked: Please report viability, T/C for the following compound: CC(=O)OC12COC1CC(O)C1(C)C(=O)C(O)C3=C(C)C(OC(=O)C(O)C(NC(=O)OC(C)(C)C)c4ccccc4)CC(O)(C(OC(=O)c4ccccc4)C21)C3(C)C (stereo not given) + CC1OCC2(CCN(c3cnc(Sc4ccnc(N)c4Cl)c(N)n3)CC2)C1N
Given back: 55.9

Asked: Supply recorded viability, T/C for CC(C)NCC(C(=O)N1CCN(c2ncnc3c2C(C)CC3O)CC1)c1ccc(Cl)cc1 (stereo not given) + C=CC(=O)N1CCN(c2nc(=O)n(-c3c(C)ccnc3C(C)C)c3nc(-c4c(O)cccc4F)c(F)cc23)C(C)C1 here.
Given back: 101

Asked: Item CC1OCC2(CCN(c3cnc(Sc4ccnc(N)c4Cl)c(N)n3)CC2)C1N (stereo not given) + C=CC(=O)N1CCN(c2nc(=O)n(-c3c(C)ccnc3C(C)C)c3nc(-c4c(O)cccc4F)c(F)cc23)C(C)C1 : provide viability, T/C
Given back: 81.9

Asked: # return recorded viability, T/C for input COc1cc2nccc(Oc3ccc(NC(=O)C4(C(=O)Nc5ccc(F)cc5)CC4)cc3)c2cc1OC + C=CC(=O)N1CCN(c2nc(=O)n(-c3c(C)ccnc3C(C)C)c3nc(-c4c(O)cccc4F)c(F)cc23)C(C)C1
Given back: 83.7

----------
Test system: 276233-004-R-J1-PDC KRAS spheroids with HUVEC/MSC, viability
Experiment: Anticancer human tumor 276233-004-R-J1-PDC cell line growth inhibition [KRAS2];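 further: cells exposed to agents for seven days before viability read; 100% = DMSO vehicle control wells and lower values mean fewer viable cells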
Conditions: second compound 0.1 µM; first compound 0.0316 µM; stronger effect = lower value
Observable: viability, T/C (%)
Express it in %; write the number only.

Here is how some molecules turned out for viability, T/C.
CN(C)C/C=C/C(=O)Nc1cc2c(Nc3ccc(F)c(Cl)c3)ncnc2cc1O[C@H]1CCOC1 + CNCc1ccccc1-c1csc(C(C)Nc2nc(C)nc3cc(OC)c(OC)cc23)c1 | 86.8
COc1cc(Nc2ncc3c(n2)-c2ccc(Cl)cc2C(c2c(F)cccc2OC)=NC3)ccc1C(=O)O + CNCc1ccccc1-c1csc(C(C)Nc2nc(C)nc3cc(OC)c(OC)cc23)c1 | 103
CN(C)C/C=C/C(=O)Nc1cc2c(Nc3ccc(F)c(Cl)c3)ncnc2cc1O[C@H]1CCOC1 + C=CC(=O)N1CCN(c2nc(OCC3CCCN3C)nc3c2CCN(c2cccc4cccc(C)c24)C3)CC1CC#N | 88
CN(C)C/C=C/C(=O)Nc1cc2c(Nc3ccc(F)c(Cl)c3)ncnc2cc1O[C@H]1CCOC1 + CC1OCC2(CCN(c3cnc(Sc4ccnc(N)c4Cl)c(N)n3)CC2)C1N | 80.1

Now look at this one.
Asked: Identify measured viability, T/C associated with Cn1nccc1Nc1nccc(-c2cc3c(s2)C(C)(C)N(CCN2CCOCC2)C3=O)n1 + C=CC(=O)N1CCN(c2nc(OCC3CCCN3C)nc3c2CCN(c2cccc4cccc(C)c24)C3)CC1CC#N
Given back: 100

----------
System: 276233-004-R-J1-PDC KRAS spheroids with HUVEC/MSC, viability
Assay: Anticancer human tumor 276233-004-R-J1-PDC cell line growth inhibition [KRAS2];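 further: cells exposed to agents for seven days before viability read; 100% = DMSO vehicle control wells and lower values mean fewer viable cells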
Conditions: second compound 0.1 µM; first compound 0.0316 µM; stronger effect = lower value
Lab note: cut-off is 80%. Strictly less in viability, T/C is criterion met. Exactly 80% or more is criterion not met.

CCN1CCN(Cc2ccc(Nc3ncc(F)c(-c4cc(F)c5nc(C)n(C(C)C)c5c4)n3)nc2)CC1 + C=CC(=O)N1CCN(c2nc(=O)n(-c3c(C)ccnc3C(C)C)c3nc(-c4c(O)cccc4F)c(F)cc23)C(C)C1 | criterion not met
Cn1nccc1Nc1nccc(-c2cc3c(s2)C(C)(C)N(CCN2CCOCC2)C3=O)n1 + CNCc1ccccc1-c1csc(C(C)Nc2nc(C)nc3cc(OC)c(OC)cc23)c1 | criterion not met
CCNC(=O)CC1N=C(c2ccc(Cl)cc2)c2cc(OC)ccc2-n2c(C)nnc21 (stereo not given) + C=CC(=O)N1CCN(c2nc(OCC3CCCN3C)nc3c2CCN(c2cccc4cccc(C)c24)C3)CC1CC#N | criterion not met
Cn1nccc1Nc1nccc(-c2cc3c(s2)C(C)(C)N(CCN2CCOCC2)C3=O)n1 + C=CC(=O)N1CCN(c2nc(=O)n(-c3c(C)ccnc3C(C)C)c3nc(-c4c(O)cccc4F)c(F)cc23)C(C)C1 | criterion not met

Here's the next entry for you.
Asked: Take the compound CC(C)NCC(C(=O)N1CCN(c2ncnc3c2C(C)CC3O)CC1)c1ccc(Cl)cc1 (stereo not given) + CNCc1ccccc1-c1csc(C(C)Nc2nc(C)nc3cc(OC)c(OC)cc23)c1 and say whether its viability, T/C is less than 80%.
Given back: criterion met

----------
Test system: 276233-004-R-J1-PDC KRAS spheroids with HUVEC/MSC, viability
Test: Anticancer human tumor 276233-004-R-J1-PDC cell line growth inhibition [KRAS2];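 further: cells exposed to agents for seven days before viability read; 100% = DMSO vehicle control wells and lower values mean fewer viable cells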
Conditions: second compound 1 µM; first compound 1 µM; stronger effect = lower value
Binning of viability, T/C into classes: lower segment = under 80%, middle segment = from 80% up to 90%, upper segment = 90% and over

Examples from the recorded data:
CCNC(=O)CC1N=C(c2ccc(Cl)cc2)c2cc(OC)ccc2-n2c(C)nnc21 (stereo not given) + C=CC(=O)N1CCN(c2nc(OCC3CCCN3C)nc3c2CCN(c2cccc4cccc(C)c24)C3)CC1CC#N | lower segment
COC(=O)c1ccc2c(C(=Nc3ccc(N(C)C(=O)CN4CCN(C)CC4)cc3)c3ccccc3)c(O)[nH]c2c1 + C=CC(=O)N1CCN(c2nc(=O)n(-c3c(C)ccnc3C(C)C)c3nc(-c4c(O)cccc4F)c(F)cc23)C(C)C1 | upper segment
Cn1nccc1Nc1nccc(-c2cc3c(s2)C(C)(C)N(CCN2CCOCC2)C3=O)n1 + C=CC(=O)N1CCN(c2nc(OCC3CCCN3C)nc3c2CCN(c2cccc4cccc(C)c24)C3)CC1CC#N | lower segment
CC1(C)CCC(CN2CCN(c3ccc(C(=O)NS(=O)(=O)c4ccc(NCC5CCOCC5)c([N+](=O)[O-])c4)c(Oc4cnc5[nH]ccc5c4)c3)CC2)=C(c2ccc(Cl)cc2)C1 + COc1cc2nc(C)nc(NC(C)c3cc(N)cc(C(F)(F)F)c3)c2cc1OC1CCOC1 | middle segment
CCN1CCN(Cc2ccc(Nc3ncc(F)c(-c4cc(F)c5nc(C)n(C(C)C)c5c4)n3)nc2)CC1 + C=CC(=O)N1CCN(c2nc(OCC3CCCN3C)nc3c2CCN(c2cccc4cccc(C)c24)C3)CC1CC#N | upper segment
CC1OCC2(CCN(c3cnc(Sc4ccnc(N)c4Cl)c(N)n3)CC2)C1N (stereo not given) + C=CC(=O)N1CCN(c2nc(OCC3CCCN3C)nc3c2CCN(c2cccc4cccc(C)c24)C3)CC1CC#N | middle segment

Asked: Lab note: which band did CC(=O)OC12COC1CC(O)C1(C)C(=O)C(O)C3=C(C)C(OC(=O)C(O)C(NC(=O)OC(C)(C)C)c4ccccc4)CC(O)(C(OC(=O)c4ccccc4)C21)C3(C)C (stereo not given) + C=CC(=O)N1CCN(c2nc(OCC3CCCN3C)nc3c2CCN(c2cccc4cccc(C)c24)C3)CC1CC#N land in?
Given back: upper segment

Asked: Which viability, T/C category applies to COC(=O)c1ccc2c(C(=Nc3ccc(N(C)C(=O)CN4CCN(C)CC4)cc3)c3ccccc3)c(O)[nH]c2c1 + CC1OCC2(CCN(c3cnc(Sc4ccnc(N)c4Cl)c(N)n3)CC2)C1N here?
Given back: lower segment

Asked: Exercise: read the entry COc1cc(Nc2ncc3c(n2)-c2ccc(Cl)cc2C(c2c(F)cccc2OC)=NC3)ccc1C(=O)O + C=CC(=O)N1CCN(c2nc(OCC3CCCN3C)nc3c2CCN(c2cccc4cccc(C)c24)C3)CC1CC#N and state which class it falls under.
Given back: upper segment

Cited source: PubChem BioAssay AID1963873
